Entries and their GI50
System: EKVX
Assay notes: NCI tumour cell line growth inhibition, 48 h
Calls of active or inactive are those of the source. No stated cut-off is given here; in the data, active = GI50 up to about 1.1 µM and inactive = higher.
Quantity kind: GI50

molecule=CCOC(=O)c1nc2cc(C(F)(F)F)ccc2nc1Oc1ccc(C#N)cc1 quantity_kind=GI50 result="> 100 µM (inactive)"
molecule=Cc1cc(C#N)c[n+](C)c1 quantity_kind=GI50 result="> 100 µM (inactive)"
molecule=N=C(N)SCCON1C(=O)c2ccccc2C1=O quantity_kind=GI50 result="> 100 µM (inactive)"
molecule=COc1cccc(/N=N/C(=N\NC(=O)c2ccc(C)cc2)c2ccc(N(CCC#N)CCC#N)cc2C)c1 quantity_kind=GI50 result="66.5 µM (inactive)"
molecule=CCN(CC)CCn1nc(N)c2nc3cc(Cl)ccc3nc21 quantity_kind=GI50 result="80 µM (inactive)"
molecule=Nc1ccccc1.O=C(O)C(C(F)(F)F)C(F)(F)F quantity_kind=GI50 result="> 100 µM (inactive)"
molecule=O=C(O)CCCN/C(=C1\C(=O)C(=O)N(c2ccccc2)C1=O)c1ccccc1 quantity_kind=GI50 result="> 100 µM (inactive)"
molecule=Nc1ccc(Nc2cc(O)nc(O)n2)cc1 quantity_kind=GI50 result="> 100 µM (inactive)"
molecule="C[n+]1c2ccccc2c(NC(CS)C(=O)O)c2ccccc21 (stereo unspecified)" quantity_kind=GI50 result="24.4 µM (inactive)"
molecule=O=C(O)c1ccn(-c2cccc(-n3ccc(C(=O)O)n3)n2)n1 quantity_kind=GI50 result="> 100 µM (inactive)"
molecule="CC(O)C1(O)C(O)CC(OC2c3cc4c(c(O)c3[C@@H]3C[C@@]2(C)OC32C=c3cc[nH]c3=N2)C(=O)c2cccc(O)c2C4=O)OC1C (stereo partly specified)" quantity_kind=GI50 result="1.11 µM (active)"

Reference for the values: ChEMBL document CHEMBL1201862
